Listed molecules paired with reported microsomal CLint at 2 µM
Assay: Human microsomal stability
Conditions: human, microsomes, pH 7.4
API: value field is a number in µL/min/mg; no unit string.

Please supply the value of reported microsomal CLint at 2 µM for the item Cc1cc(CCCOc2c(C)cc(-c3noc(C(F)(F)F)n3)cc2C)on1 [Compound 1, Pleconaril]
12

Please supply the value of reported microsomal CLint at 2 µM for the item CCOC(=O)c1ccc(OCCC2CCN(c3ccc(C)nn3)CC2)cc1 [Compound S-58, Pirodavir, reference compound]
708

###

Assay: Mouse microsomal stability
Conditions: microsomes, pH 7.4
outcome.measure: microsomal CLint at 2 µM
Note: state the figure and append the unit.

Please supply the value of reported microsomal CLint at 2 µM for the item CCOC(=O)c1ccc(OCCC2CCN(c3ccc(C)nn3)CC2)cc1 [Compound S-58, Pirodavir, reference compound]
580 µL/min/mg

###

System: P-gp (human MDR1)
Test: in vitro
Conditions: dog, MDCK-MDR1, MDCKII-MDR1 Papp A→B
outcome.measure: Papp A→B (×10⁻⁶ cm/s)
API: value field is a number in ×10⁻⁶ cm/s; no unit string.

| compound | scale.unit | observed.result |
| --- | --- | --- |
| CN(C)C(=O)c1cc(CCCn2ccc3cc(-c4noc(C(F)(F)F)n4)ncc32)on1 | ×10⁻⁶ cm/s | 3.5 |
| Cc1cc(-c2noc(C(F)(F)F)n2)ccc1O[C@H]1CCN(c2cc(C(=O)N(C)C)no2)C1 | ×10⁻⁶ cm/s | 2.5 |
| CN(C)C(=O)c1cc(CCCn2ccc3cc(-c4noc(C(F)(F)F)n4)cnc32)on1 | ×10⁻⁶ cm/s | 15.5 |
| Cc1cc(-c2noc(C(F)(F)F)n2)ccc1O[C@@H]1CCN(c2cc(C(=O)N(C)C)no2)C1 | ×10⁻⁶ cm/s | 4 |
| Cc1cc(CCCOc2c(C)cc(-c3noc(C(F)(F)F)n3)cc2C)on1 | ×10⁻⁶ cm/s | 1.4 |

In the following, a different compound is considered.
Provide measured Papp A→B on P-gp (human MDR1) for Cc1cc(-c2noc(C(F)(F)F)n2)ccc1OCCCc1cc(C(=O)N(C)C)no1 [Compound 2, CP-11526092, reference compound] please.
2.3

###

Listed compounds paired with reported microsomal CLint at 2 µM
Assay: Mouse microsomal stability
Settings: liver microsomes, pH 7.4
API: value field is a number in µL/min/mg; no unit string.

Please review the entries below; each comes with its answer.
| compound | scale.unit | observed.result |
| --- | --- | --- |
| Cc1cc(-c2noc(C(F)(F)F)n2)ccc1O[C@@H]1CCN(c2cc(C(=O)N(C)C)no2)C1 | µL/min/mg | 38 |
| Cc1cc(CCCOc2c(C)cc(-c3noc(C(F)(F)F)n3)cc2C)on1 | µL/min/mg | 22 |
| CN(C)C(=O)c1cc(CCCn2ccc3cc(-c4noc(C(F)(F)F)n4)ncc32)on1 | µL/min/mg | 29 |
| Cc1cc(-c2noc(C(F)(F)F)n2)ccc1OCCCc1cc(C(=O)N(C)C)no1 [Compound 2, CP-11526092, reference compound] | µL/min/mg | 24 |
| Cc1cc(-c2noc(C(F)(F)F)n2)ccc1O[C@H]1CCN(c2cc(C(=O)N(C)C)no2)C1 | µL/min/mg | 41 |

In the following, a different compound is considered.
Please supply the value of reported microsomal CLint at 2 µM for the item `CN(C)C(=O)c1cc(CCCn2ccc3cc(-c4noc(C(F)(F)F)n4)cnc32)on1`
133
